The reported numbers originate from ChEMBL document CHEMBL1777706.

Experiment: Half life in rat liver microsomes
Format: ADME, Microsome
Below, each entry is listed alongside its reported half-life.
Quantity: half-life

CCN1CCC2(CC1)CNC(=O)c1cc(-c3ccnc(-c4cc5ccccc5o4)n3)[nH]c12 : > 59.6 min
COc1cncc(-c2nccc(-c3cc4c([nH]3)C3(CCCNC3)CNC4=O)n2)c1 (racemic) : 42.1 min
COCCCOc1ccc(-c2nccc(-c3cc4c([nH]3)C3(CCCNC3)CNC4=O)n2)cn1 (racemic) : > 60 min
CN1CCC2(CC1)CNC(=O)c1cc(-c3ccnc(-c4cc5ccccc5o4)n3)[nH]c12 : > 60 min
O=C1NCC2(CCCNC2)c2[nH]c(-c3ccnc(-c4ccc5c(c4)OCO5)n3)cc21 (racemic) : 48.5 min
O=C1NCC2(CCNCC2)c2[nH]c(-c3ccnc(-c4cc5ccccc5o4)n3)cc21 : > 60 min
O=C1NCC2(CCCNC2)c2[nH]c(-c3ccnc(-c4cc5ccccc5o4)n3)cc21 (racemic) : > 60 min
O=C1NCC2(CCNCC2)c2[nH]c(-c3ccnc(-c4ccc5c(c4)OCO5)n3)cc21 : > 60 min

---

Below, each entry is listed alongside its reported log10 of EC50.
Target: MAP kinase-activated protein kinase 2 (Homo sapiens)
Sequence (P49137 whole entry): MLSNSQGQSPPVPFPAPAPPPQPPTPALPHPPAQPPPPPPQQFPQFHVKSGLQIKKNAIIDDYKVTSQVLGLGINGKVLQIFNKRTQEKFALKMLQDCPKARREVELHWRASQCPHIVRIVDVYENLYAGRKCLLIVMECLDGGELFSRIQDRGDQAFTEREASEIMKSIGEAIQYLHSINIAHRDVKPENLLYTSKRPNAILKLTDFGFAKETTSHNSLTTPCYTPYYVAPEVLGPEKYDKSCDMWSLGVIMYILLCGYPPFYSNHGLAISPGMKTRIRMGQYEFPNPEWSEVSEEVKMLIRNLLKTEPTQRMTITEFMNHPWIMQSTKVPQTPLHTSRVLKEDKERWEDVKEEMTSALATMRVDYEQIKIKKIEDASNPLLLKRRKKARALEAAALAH
Assay: Inhibition of MK2 pretreated for 30 mins before fluorescein labeled substrate peptide addition measured after 2 hrs by IMAP assay
Quantity: log10 of EC50 (log10 of the value in µM)

COc1cncc(-c2nccc(-c3cc4c([nH]3)[C@@]3(CCCNC3)CNC4=O)n2)c1 : -0.90
O=C1NCC2(CCCNC2)c2[nH]c(-c3ccnc(-c4cc5ccccc5o4)n3)cc21 (racemic) : -1.96
O=C1NCC2(CCCNC2)c2[nH]c(-c3ccnc(-c4ccc5c(c4)OCO5)n3)cc21 (racemic) : -1.55
Nc1ncc(-c2nccc(-c3cc4c([nH]3)C3(CCNCC3)CNC4=O)n2)cn1 : -2.30
O=C1NCC2(CCNCC2)c2[nH]c(-c3ccnc(-c4ccccc4F)n3)cc21 : -1.54
O=C1NCC2(CCNCC2)c2[nH]c(-c3ccnc(-c4cccc(C(F)(F)F)c4)n3)cc21 : -1.82
O=C1NCC2(CCCNC2)c2[nH]c(-c3ccnc(-c4cccnc4)n3)cc21 (racemic) : -1.74
CCC(=O)Nc1ccc(-c2nccc(-c3cc4c([nH]3)C3(CCNCC3)CNC4=O)n2)cn1 : -2.21
O=C1NCC2(CCOCC2)c2[nH]c(-c3ccnc(-c4ccc5c(c4)OCO5)n3)cc21 : -0.14

---

Biological target: Mitogen-activated protein kinase 3 (Homo sapiens)
Experiment: Inhibition of ERK1 at 1 uM
Quantity: inhibition

COCCCOc1ccc(-c2nccc(-c3cc4c([nH]3)[C@@]3(CCCNC3)CNC4=O)n2)cn1 : > 80%
CN1CCC2(CC1)CNC(=O)c1cc(-c3ccnc(-c4cc5ccccc5o4)n3)[nH]c12 : > 80%
O=C1NCC2(CCNCC2)c2[nH]c(-c3ccnc(-c4cc5ccccc5o4)n3)cc21 : > 80%
CC(C)(C)c1ccc(-c2nccc(-c3cc4c([nH]3)C3(CCNCC3)CNC4=O)n2)cc1 : > 80%
O=C1NCC2(CCNCC2)c2[nH]c(-c3ccnc(-c4cccc(C(F)(F)F)c4)n3)cc21 : > 80%
O=C1NC[C@]2(CCCNC2)c2[nH]c(-c3ccnc(-c4ccc5c(c4)OCO5)n3)cc21 : > 80%
CC(=O)c1ccc(-c2nccc(-c3cc4c([nH]3)C3(CCNCC3)CNC4=O)n2)cc1 : > 80%
Nc1ccc(-c2nccc(-c3cc4c([nH]3)C3(CCNCC3)CNC4=O)n2)cn1 : > 80%
CC(=O)c1cccc(-c2nccc(-c3cc4c([nH]3)C3(CCNCC3)CNC4=O)n2)c1 : > 80%

---

Assay: AUC in po dosed rat
Type: ADME, organism-based
Settings: plasma
Classify as follows. Reported AUC greater than or equal to 0.2 µM·h: YES. Reported AUC below: NO.

COCCCOc1ccc(-c2nccc(-c3cc4c([nH]3)C3(CCCNC3)CNC4=O)n2)cn1 (racemic) : YES
O=C1NCC2(CCNCC2)c2[nH]c(-c3ccnc(-c4ccc5c(c4)OCO5)n3)cc21 : NO
O=C1NCC2(CCCNC2)c2[nH]c(-c3ccnc(-c4cc5ccccc5o4)n3)cc21 (racemic) : YES
CN1CCC2(CC1)CNC(=O)c1cc(-c3ccnc(-c4cc5ccccc5o4)n3)[nH]c12 : NO
O=C1NCC2(CCCNC2)c2[nH]c(-c3ccnc(-c4ccc5c(c4)OCO5)n3)cc21 (racemic) : YES
O=C1NCC2(CCNCC2)c2[nH]c(-c3ccnc(-c4cc5ccccc5o4)n3)cc21 : NO
CCN1CCC2(CC1)CNC(=O)c1cc(-c3ccnc(-c4cc5ccccc5o4)n3)[nH]c12 : NO

---

Test: Dissociation constant, pKa of the compound at pH 7.4
Type: physicochemical
Known pKa of a selection of compounds
Quantity: pKa

O=C1NCC2(CCNCC2)c2[nH]c(-c3ccnc(-c4cc5ccccc5o4)n3)cc21 : 9.1
COc1cncc(-c2nccc(-c3cc4c([nH]3)C3(CCCNC3)CNC4=O)n2)c1 (racemic) : 8.4
O=C1NCC2(CCCNC2)c2[nH]c(-c3ccnc(-c4cc5ccccc5o4)n3)cc21 (racemic) : 8.4
COCCCOc1ccc(-c2nccc(-c3cc4c([nH]3)C3(CCCNC3)CNC4=O)n2)cn1 (racemic) : 8.2
CCN1CCC2(CC1)CNC(=O)c1cc(-c3ccnc(-c4cc5ccccc5o4)n3)[nH]c12 : 8.6
O=C1NCC2(CCNCC2)c2[nH]c(-c3ccnc(-c4ccc5c(c4)OCO5)n3)cc21 : 9.3
CN1CCC2(CC1)CNC(=O)c1cc(-c3ccnc(-c4cc5ccccc5o4)n3)[nH]c12 : 8.1
O=C1NCC2(CCCNC2)c2[nH]c(-c3ccnc(-c4ccc5c(c4)OCO5)n3)cc21 (racemic) : 8.3

---

Reported EC50 values for a set of molecules
Target: MAP kinase-activated protein kinase 2 (Homo sapiens)
Test: Inhibition of MK2 pretreated for 30 mins before fluorescein labeled substrate peptide addition measured after 2 hrs by IMAP assay
Quantity: EC50 (nM)

O=C1NCC2(CCNCC2)c2[nH]c(-c3ccnc(-c4ccc5c(c4)OCO5)n3)cc21 : 4.3
O=C1NCC2(CCNCC2)c2[nH]c(-c3ccnc(-c4cccc(F)c4)n3)cc21 : 8.3
CCN1CCC2(CC1)CNC(=O)c1cc(-c3ccnc(-c4cc5ccccc5o4)n3)[nH]c12 : 59
COc1cncc(-c2nccc(-c3cc4c([nH]3)C3(CCCNC3)CNC4=O)n2)c1 (racemic) : 24
COc1cncc(-c2nccc(-c3cc4c([nH]3)[C@]3(CCCNC3)CNC4=O)n2)c1 : 9.3
CC(C)c1cccc(-c2nccc(-c3cc4c([nH]3)C3(CCNCC3)CNC4=O)n2)c1 : 112
O=C1NCC2(CCNCC2)c2[nH]c(-c3ccnc(-c4cc(Cl)cc(Cl)c4)n3)cc21 : 4.5
O=C1NCC2(CCNCC2)c2[nH]c(-c3ccnc(-c4cnc(NC5CCCC5)nc4)n3)cc21 : 4.9
CC(C)(C)c1ccc(-c2nccc(-c3cc4c([nH]3)C3(CCNCC3)CNC4=O)n2)cc1 : 6.2
O=C1NC[C@@]2(CCCNC2)c2[nH]c(-c3ccnc(-c4cccnc4)n3)cc21 : 6.5
O=C1NC[C@]2(CCCNC2)c2[nH]c(-c3ccnc(-c4ccc5c(c4)OCO5)n3)cc21 : 91
COCCCOc1ccc(-c2nccc(-c3cc4c([nH]3)[C@]3(CCCNC3)CNC4=O)n2)cn1 : 6.9
O=C1NCC2(CCNCC2)c2[nH]c(-c3ccnc(-c4cc5ccccc5o4)n3)cc21 : 5.9
CC(=O)c1ccc(-c2nccc(-c3cc4c([nH]3)C3(CCNCC3)CNC4=O)n2)cc1 : 9.8
O=C1NC[C@]2(CCCNC2)c2[nH]c(-c3ccnc(-c4cccnc4)n3)cc21 : 288
COCCCOc1ccc(-c2nccc(-c3cc4c([nH]3)[C@@]3(CCCNC3)CNC4=O)n2)cn1 : 129
CC(=O)c1cccc(-c2nccc(-c3cc4c([nH]3)C3(CCNCC3)CNC4=O)n2)c1 : 11
O=C1NCC2(CCNCC2)c2[nH]c(-c3ccnc(-c4ccc5c(c4)OCCCO5)n3)cc21 : 10
O=C1NCC2(CCNCC2)c2[nH]c(-c3ccnc(-c4ccc(C(F)(F)F)cc4)n3)cc21 : 6.9
